Reference source: patent US10004701B2

tested on: A. baumannii strain 98-37-09; experiment: AK assay 384-well format, Prestwick library screening; format: cell-based, Acinetobacter baumannii; conditions: Acinetobacter baumannii, 983709, 3 h; planktonic A. baumannii; 50 μM final drug concentration; cutoff for positive-scoring molecules 3-fold increase; read-out: AK-based Prestwick Library Screening Results, A. baumannii (increase in extracellular AK activity)
Where a name gives a salt, the structure may show the parent alone.
measure: fold induction at 50 µM
Simply state the number, no unit and no words.

Observe how each entry below is paired with its result.
COc1ccc2cc3[n+](cc2c1OC)CCc1cc2c(cc1-3)OCO2 [Berberine chloride]; 0.9
CC(C)COCC(CN(Cc1ccccc1)c1ccccc1)N1CCCC1 (stereo not shown) [Bepridil hydrochloride]; 1.5
C=C1CC[C@H](O)C/C1=C/C=C1\CCC[C@]2(C)[C@@H]([C@H](C)/C=C/[C@H](C)C(C)C)CC[C@@H]12; 0.7
CC(CCc1ccc(O)cc1)NCCc1ccc(O)c(O)c1 (stereo not shown) [Dobutamine hydrochloride]; 0.7
N=C(N)NC(=O)Cc1c(Cl)cccc1Cl [Guanfacine hydrochloride]; 0.7
O=c1[nH]c2ccccc2n1CCCN1CCC(n2c(=O)[nH]c3cc(Cl)ccc32)CC1; 0.7

Now look at this entry.
Problem: Item under review: CCOC(=O)Oc1c(OC)cc(C(=O)O[C@@H]2C[C@@H]3CN4CCc5c([nH]c6cc(OC)ccc56)[C@H]4C[C@@H]3[C@H](C(=O)OC)[C@H]2OC)cc1OC . Reported fold induction at 50 µM?
Solution: 0.6

====

// fold induction at 50 µM lookup, one value per entry
tested on: S. aureus strain USA300-0114; experiment: AK assay 384-well format, Prestwick library screening; assay type: cell-based, Staphylococcus aureus; conditions: Staphylococcus aureus, USA300, 3 h; planktonic S. aureus; 50 μM final drug concentration; 384-well; cutoff for positive-scoring molecules 3-fold increase; read-out: AK-based Prestwick Library Screening Results: S. aureus (increase in extracellular AK activity)
Structures can show the parent of a compound that is named as a salt.
I only need the number, thanks.

COc1ccc(Cl)cc1C(=O)NCCc1ccc(S(=O)(=O)NC(=O)NC2CCCCC2)cc1 [Glibenclamide]; 0.9
O=C1NCC2(CCN(CCc3ccccc3)CC2)O1 [Fenspiride hydrochloride]; 1.1
CO/N=C(\C(=O)N[C@@H]1C(=O)N2C(C(=O)O)=C(COC(C)=O)CS[C@H]12)c1csc(N)n1 [Cefotaxime sodium salt]; 2.9
CN(C)CCCN1c2ccccc2Sc2ccc(Cl)cc21 [Chlorpromazine hydrochloride]; 1.4
OCCN(CCO)c1nc(N2CCCCC2)c2nc(N(CCO)CCO)nc(N3CCCCC3)c2n1 [Dipyridamole]; 0.8
COc1cc(C(=O)OCCCN2CCCN(CCCOC(=O)c3cc(OC)c(OC)c(OC)c3)CC2)cc(OC)c1OC [Dilazep dihydrochloride]; 1.2

Problem: Sample Cc1cc(-c2ccccc2)nnc1NCCN1CCOCC1 [Minaprine dihydrochloride] — what was its fold induction at 50 µM?
Solution: 1

Problem: Which value of fold induction at 50 µM has been reported for C[C@H](CCC(=O)O)[C@H]1CC[C@H]2[C@@H]3[C@H](O)C[C@@H]4C[C@H](O)CC[C@]4(C)[C@H]3CC[C@]12C [Chenodiol] in the records?
Solution: 1.7

Problem: Dear colleague, I am looking for the recorded fold induction at 50 µM of the following compound: Cc1c(Cl)cccc1Nc1ccccc1C(=O)O [Tolfenamic acid]
Solution: 0.5

Problem: Look up fold induction at 50 µM: COc1ccc([C@@H]2Sc3ccccc3N(CCN(C)C)C(=O)[C@@H]2OC(C)=O)cc1 [Diltiazem hydrochloride]
Solution: 0.8

Problem: Record request: fold induction at 50 µM value, item Cc1ccc(C)c(OCCCC(C)(C)C(=O)O)c1 [Gemfibrozil]
Solution: 0.9

Problem: Name the reported fold induction at 50 µM value associated with the compound CCCN(CCC)C(=O)C(CCC(=O)O)NC(=O)c1ccccc1 (stereo not shown) [Proglumide]
Solution: 1.1

Problem: Sample CN1CCOC(c2ccccc2)c2ccccc2C1 (stereo not shown) [Nefopam hydrochloride] — what was its fold induction at 50 µM?
Solution: 1.1
